Molecular target: HbS (Homo sapiens, UniProt P68871+P69905, E7V)
Construct: HbS was obtained from the blood of homozygous S/S patients
Experiment: 'R'-'T' assay (conversion of oxy HbS to deoxy HbS under deoxygenating conditions)
Conditions: 50% inhibition of HbS 'R'-'T' conversion; 3 uM HbS, <1% O2
measurement-label: IC50 (µM)
Report as a plain number; the unit µM is understood.

Some compounds with known IC50 results, for comparison:
>>> df
                                   compound  measurement_label  reading_unit  reported_measurement
0  C[C@H](Oc1cc2cc(Br)ccc2nc1N)c1ncc(F)cc1-n1cccn1               IC50            µM                  4.78
1  C[C@H](Oc1cc2cc(F)ccc2nc1N)c1nc(O)ccc1-n1cccn1               IC50            µM                   4.8
2  C[C@H](Oc1cc2cc(F)c(Cl)cc2nc1N)c1cc2[nH]ncc2cc1-n1cccn1               IC50            µM                  4.11
3  C[C@H](Oc1cc2cc(F)ccc2nc1N)c1cc(-c2noc(=O)[nH]2)ccc1-n1cccn1               IC50            µM                  5.05

Ask: I have this compound here, C[C@H](Oc1cc2cc(F)ccc2nc1N)c1cc(C(=O)NCCO)ccc1-n1cccn1 , and I need its recorded IC50.
Reply: 4.48

Ask: GET /values?readout=IC50&item= CC(Oc1cc2cc(C(N)=O)c(F)cc2nc1N)c1cc2[nH]ncc2cc1-n1cccn1 (stereo in doubt)
Reply: 6.17

Ask: Name the reported IC50 value associated with the compound Cc1cc2nc(N)c(O[C@@H](C)c3nc4c(cnn4CCO)cc3-n3cccn3)cc2cn1
Reply: 6.3

Ask: Would you kindly share the measured IC50 for C[C@H](Oc1cc2cc(C(N)=O)cc(F)c2nc1N)c1ncc(F)cc1-n1cccn1 ?
Reply: 3.93

Measured values drawn from patent US11014908B2 for this set.
